test system: T1, COVID S1 RBM Fc fusion (Antigen 2) (SARS-CoV-2, UniProt P0DTC2 437-508)
T1 construct: domain: RBM
test summary: phage ELISA
So basically: ELISA fold over background at 1 fold over background or higher? That is Criterion met. Lower than 1 fold over background? That is Criterion not met.

Worked examples follow.
- binder: "1-5 (antibody, V domains shown, also called variant 1-5) VH: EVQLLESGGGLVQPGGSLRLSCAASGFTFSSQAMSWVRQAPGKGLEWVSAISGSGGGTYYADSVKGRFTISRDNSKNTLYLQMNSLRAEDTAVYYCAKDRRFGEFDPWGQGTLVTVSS VL: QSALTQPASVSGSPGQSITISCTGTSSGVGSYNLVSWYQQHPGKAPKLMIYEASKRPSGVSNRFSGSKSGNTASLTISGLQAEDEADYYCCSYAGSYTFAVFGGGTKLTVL"
  label value: "Criterion met"
- binder: "1-20 (antibody, V domains shown, also called variant 1-20) VH: EVQLLESGGGLVQPGGSLRLSCAASGITFSSYAMSWVRQAPGKGLEWVSGISGSGGSTYYADSVKGRFTISRDNSKNTLYLQMNSLRAEDTAVYYCANHGSGTIFGVVIAKYYFDYWGQGTLVTVSS VL: QSALTQPASVSGSPGQSITISCTGTSSDVGHYNLVSWYQQHPGKAPKLMIYEGTKRPSGVSNRFSGSKSGNTASLTISGLQAEDEADYYCCSYAGSSSFVVFGGGTKLTVL"
  label value: "Criterion not met"
- binder: "1-17 (antibody, V domains shown, also called variant 1-17) VH: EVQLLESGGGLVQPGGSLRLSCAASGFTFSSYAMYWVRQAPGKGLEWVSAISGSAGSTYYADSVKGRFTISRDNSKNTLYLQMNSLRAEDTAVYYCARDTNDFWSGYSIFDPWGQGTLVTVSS VL: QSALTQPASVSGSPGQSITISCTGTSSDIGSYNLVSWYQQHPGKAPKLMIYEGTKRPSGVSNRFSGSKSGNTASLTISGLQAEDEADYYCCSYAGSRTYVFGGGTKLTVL"
  label value: "Criterion met"
- binder: "1-28 (antibody, V domains shown, also called variant 1-28) VH: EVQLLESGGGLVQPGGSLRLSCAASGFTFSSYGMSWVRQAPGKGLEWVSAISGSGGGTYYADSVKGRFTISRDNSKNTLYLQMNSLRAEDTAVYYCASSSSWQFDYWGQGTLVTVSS VL: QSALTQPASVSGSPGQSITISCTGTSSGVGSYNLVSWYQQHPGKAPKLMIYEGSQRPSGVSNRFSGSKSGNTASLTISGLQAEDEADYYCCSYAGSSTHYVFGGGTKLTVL"
  label value: "Criterion met"
- binder: "1-2 (antibody, V domains shown, also called variant 1-2) VH: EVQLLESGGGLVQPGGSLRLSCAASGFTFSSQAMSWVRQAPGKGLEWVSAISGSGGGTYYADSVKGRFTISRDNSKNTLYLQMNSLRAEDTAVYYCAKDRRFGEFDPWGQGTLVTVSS VL: QSALTQPASVSGSPGQSITISCTGTSSGVGSYNLVSWYQQHPGKAPKLMIYEGIKRPSGVSNRFSGSKSGNTASLTISGLQAEDEADYYCCSYAGSSSFVVFGGGTKLTVL"
  label value: "Criterion met"

Now, please, on to the next binder.
Input: State whether the measured ELISA fold over background reaches 1 fold over background, counting equality as reaching it, for 1-30 (antibody, V domains shown, also called variant 1-30) VH: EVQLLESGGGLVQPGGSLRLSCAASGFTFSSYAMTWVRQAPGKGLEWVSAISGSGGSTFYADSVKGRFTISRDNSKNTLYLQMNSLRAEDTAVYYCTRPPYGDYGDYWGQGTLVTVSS VL: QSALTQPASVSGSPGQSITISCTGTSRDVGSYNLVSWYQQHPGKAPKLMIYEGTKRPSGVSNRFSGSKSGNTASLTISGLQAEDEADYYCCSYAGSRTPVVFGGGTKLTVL
Output: Criterion met
